Experiment: small-molecule binders of probe aNOTCH2, primary screen, biochemical, small-molecule microarray, 635/667 nm fluorescence (AID 1121);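 note: score merges feature fluorescence read at 667 nm with its signal to noise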
Settings: higher = more signal
measured-parameter: composite z-score

>>> val("Cc1ccc(S[C@]2(C(=O)NCCCN(C)C)CC(=O)N(Cc3cc(C(F)(F)F)cc(C(F)(F)F)c3)[C@@H]2c2ccc(CO)cc2I)cc1")
-0.0492
>>> val("O=C1O[C@@H](c2ccccc2)[C@@H](c2ccccc2)N2[C@@H](c3ccccc3OCCO)[C@]3(C(=O)Nc4ccccc43)[C@@H](C(=O)Nc3nc4ccccc4s3)[C@H]12")
-0.181
>>> val("CNS(=O)(=O)c1ccc(C)cc1")
-0.0761
>>> val("Cc1ccccc1C(O)C1C=CC2C(=O)N(c3ccccc3)C(=O)C2N1Nc1ccc(C(C)C)cc1 (centres undefined)")
-0.0983
